Measured melting point of individual entries

[
  {
    "MOLECULE": "CCCCc1nnc(SCc2ccc(Cl)cc2)n1Cc1ccc(OC(C(=O)O)c2ccccc2)cc1 (configuration not stated)",
    "melting point": "66 to 67 °C"
  },
  {
    "MOLECULE": "COc1ccc(NC=O)c(COC=O)c1",
    "melting point": "117 °C"
  },
  {
    "MOLECULE": "Cn1c(CC#N)ccc1C(=O)c1ccccc1Cl",
    "melting point": "80 to 85 °C"
  },
  {
    "MOLECULE": "CN1CCN(c2ccc(N/C=C3\\C(=O)NC(=O)c4ccc(C#Cc5ccccc5)cc43)cc2)CC1",
    "melting point": "169 to 170 °C"
  },
  {
    "MOLECULE": "COc1cc(OC)c(OC(=O)CS(=O)(=O)Nc2c(C(C)C)cccc2C(C)C)c(OC)c1",
    "melting point": "167 to 170 °C"
  },
  {
    "MOLECULE": "CC1=C2C(=O)N(O)C(=O)c3cccc(c32)C(=NO)C1O (configuration not stated)",
    "melting point": "302 to 304 °C"
  },
  {
    "MOLECULE": "Cc1nc(N2CCOCC2)sc1C",
    "melting point": "122 to 123 °C"
  },
  {
    "MOLECULE": "O=c1cccc(-c2ccccn2)[nH]1",
    "melting point": "124 to 127 °C"
  },
  {
    "MOLECULE": "COc1ccc(CN2CCC(c3cc(-c4ccc(Cl)cc4)[nH]n3)CC2)cc1",
    "melting point": "166 to 168 °C"
  },
  {
    "MOLECULE": "COc1cc(-c2ccc(C)cc2)cc2oc(=O)c(C)c(C)c12",
    "melting point": "123 °C"
  },
  {
    "MOLECULE": "CNC(=O)c1cc(Br)cc(F)c1Nc1nc(Cl)ncc1Cl",
    "melting point": "246 to 249 °C"
  },
  {
    "MOLECULE": "CCC(OCC1CC1)c1ccc(Cl)c2nc3n(c12)CCCN3c1ccc(Cl)cc1Cl (configuration not stated)",
    "melting point": "159 to 160 °C"
  },
  {
    "MOLECULE": "COc1cccc(CC(=O)O)c1OCCCc1cn(-c2ccc(C(C)=O)cn2)nc1C(C)C",
    "melting point": "148 to 149 °C"
  },
  {
    "MOLECULE": "COC(=O)CCCC(=O)c1ccccc1C=CBr",
    "melting point": "52 to 55 °C"
  },
  {
    "MOLECULE": "CC(C)(C)OC(=O)NC1CCCCCC=CC2CC2(C(=O)NS(=O)(=O)C2CC2)NC(=O)C2CC(OC(=O)c3ccc(-c4ccccc4)cc3)CN2C1=O (configuration not stated)",
    "melting point": "162 to 164 °C"
  },
  {
    "MOLECULE": "CC1(C)NC(=O)c2cc(OCCBr)ccc2O1",
    "melting point": "190 to 195 °C"
  },
  {
    "MOLECULE": "COC(=O)c1ccc(C(=O)NN)cn1",
    "melting point": "177 to 180 °C"
  },
  {
    "MOLECULE": "COc1ccccc1-c1nn(-c2ccccc2)c(=O)o1",
    "melting point": "112 to 115 °C"
  },
  {
    "MOLECULE": "Clc1ccc2sc(=Nc3ccccc3)sc2c1",
    "melting point": "71 to 73 °C"
  },
  {
    "MOLECULE": "CC(C)(C)OC(=O)NCc1cccc(Nc2n[nH]c3ncnc(Nc4cccc(Cl)c4)c23)c1",
    "melting point": "147 to 148 °C"
  },
  {
    "MOLECULE": "O=C(O)C=CC(=S)c1ccc(-c2ccccc2)cc1",
    "melting point": "157 to 159 °C"
  },
  {
    "MOLECULE": "C=Cc1ccc(NC(=O)OC)nc1",
    "melting point": "146 to 148 °C"
  }
]
